- protocol: Cell viability of HepG2.2.15 cells (ATP levels, CellTiter-Glo)
- Format: cell-based
- condition-label: human, HepG2.2.15 cells, ATP levels, CellTiter-Glo
readout-kind: CC50 at 6 days (µM)

* O=C(Nc1cc(F)c(F)c(F)c1)c1ccc(F)c(S(=O)(=O)N2CCC(O)CC2)c1 | 14.5

---

- protocol: 28-day twice-daily oral gavage pharmacokinetics in CD1 mice
- Assay type: in vivo
- condition-label: male, CD1, mouse, plasma, po, 500 mg/kg, day 28; 500 mg/kg/dose BID oral gavage; M; relative to second daily dose
readout-kind: Tmax (h)

* O=C(Nc1cc(F)c(F)c(F)c1)c1ccc(F)c(S(=O)(=O)N2CCC(O)CC2)c1 | 3

---

- System: HBV GT C
- protocol: Transient-transfection antiviral study in HepG2 cells, GT C
- Type: cell-based
- condition-label: Hepatitis B virus, HepG2, 72 h, read-out: EC50 (mean), HBV GT C
readout-kind: EC50 (µM)

• O=C(Nc1cc(F)c(F)c(F)c1)c1ccc(F)c(S(=O)(=O)N2CCC(O)CC2)c1 = 0.34

---

- protocol: Oral bioavailability and pharmacokinetics in beagle dogs
- Assay type: in vivo
- condition-label: dog, plasma, iv; single i.v. 0.5 mg/kg, two male beagle dogs
readout-kind: clearance (mL/min/kg)

- O=C(Nc1cc(F)c(F)c(F)c1)c1ccc(F)c(S(=O)(=O)N2CCC(O)CC2)c1 [NVR 3-778]: 6.1

---

- protocol: 28-day twice-daily oral gavage pharmacokinetics in CD1 mice
- Format: in vivo
- condition-label: female, CD1, mouse, plasma, po, 50 mg/kg, day 1; 50 mg/kg/dose BID oral gavage; F; after second daily dose; read-out: AUC0–12
readout-kind: AUC(0-t) (ng·h/mL)

- O=C(Nc1cc(F)c(F)c(F)c1)c1ccc(F)c(S(=O)(=O)N2CCC(O)CC2)c1: 60100

---

- protocol: 28-day twice-daily oral gavage pharmacokinetics in CD1 mice
- Format: in vivo
- condition-label: female, CD1, mouse, plasma, po, 500 mg/kg, day 1; 500 mg/kg/dose BID oral gavage; F; plasma; read-out: Cmax
readout-kind: Cmax

- O=C(Nc1cc(F)c(F)c(F)c1)c1ccc(F)c(S(=O)(=O)N2CCC(O)CC2)c1: 41400 ng/mL

---

- protocol: 28-day twice-daily oral gavage pharmacokinetics in CD1 mice
- Assay type: in vivo
- condition-label: female, CD1, mouse, plasma, po, 500 mg/kg, day 1; 500 mg/kg/dose BID oral gavage; F; relative to second daily dose
readout-kind: Tmax

- O=C(Nc1cc(F)c(F)c(F)c1)c1ccc(F)c(S(=O)(=O)N2CCC(O)CC2)c1 [NVR 3-778]: 30 min

---

- protocol: 28-day twice-daily oral gavage pharmacokinetics in CD1 mice
- Format: in vivo
- condition-label: male, CD1, mouse, plasma, po, 50 mg/kg, day 28; 50 mg/kg/dose BID oral gavage; M; relative to second daily dose
readout-kind: Tmax (h)

• O=C(Nc1cc(F)c(F)c(F)c1)c1ccc(F)c(S(=O)(=O)N2CCC(O)CC2)c1 [NVR 3-778] = 3

---

- protocol: 28-day twice-daily oral gavage pharmacokinetics in CD1 mice
- Assay type: in vivo
- condition-label: male, CD1, mouse, plasma, po, 150 mg/kg, day 1; 150 mg/kg/dose BID oral gavage; M; relative to second daily dose
readout-kind: Tmax (h)

- O=C(Nc1cc(F)c(F)c(F)c1)c1ccc(F)c(S(=O)(=O)N2CCC(O)CC2)c1 [NVR 3-778]: 1

---

- Tested on: HBV
- protocol: Antiviral studies using HepG2.2.15 cells (HBV DNA and HBV RNA readouts)
- Format: cell-based, hepatitis B virus (GT D)
- condition-label: Hepatitis B virus; HepG2.2.15 cells, supernatant; read-out: EC50, secreted HBV RNA (mean)
readout-kind: EC50 (nM)

- O=C(Nc1cc(F)c(F)c(F)c1)c1ccc(F)c(S(=O)(=O)N2CCC(O)CC2)c1: 600

---

- protocol: 28-day twice-daily oral gavage pharmacokinetics in CD1 mice
- Assay type: in vivo
- condition-label: female, CD1, mouse, plasma, po, 500 mg/kg, day 28; 500 mg/kg/dose BID oral gavage; F; after second daily dose; read-out: AUC0–12
readout-kind: AUC(0-t) (µg·h/mL)

* O=C(Nc1cc(F)c(F)c(F)c1)c1ccc(F)c(S(=O)(=O)N2CCC(O)CC2)c1 | 354

---

- protocol: 28-day twice-daily oral gavage pharmacokinetics in CD1 mice
- Assay type: in vivo
- condition-label: female, CD1, mouse, plasma, po, 50 mg/kg, day 1; 50 mg/kg/dose BID oral gavage; F; relative to second daily dose
readout-kind: Tmax (min)

* O=C(Nc1cc(F)c(F)c(F)c1)c1ccc(F)c(S(=O)(=O)N2CCC(O)CC2)c1 | 30

---

- Test system: HBV core protein variant T109I
- protocol: microbe, parasite or virus in culture
- condition-label: Hepatitis B virus, HepG2, read-out: EC50, core variant T109I
readout-kind: EC50 (nM)

* O=C(Nc1cc(F)c(F)c(F)c1)c1ccc(F)c(S(=O)(=O)N2CCC(O)CC2)c1 [NVR 3-778] | 150

---

- protocol: 28-day twice-daily oral gavage pharmacokinetics in CD1 mice
- Type: in vivo
- condition-label: male, CD1, mouse, plasma, po, 150 mg/kg, day 28; 150 mg/kg/dose BID oral gavage; M; relative to second daily dose
readout-kind: Tmax (h)

* O=C(Nc1cc(F)c(F)c(F)c1)c1ccc(F)c(S(=O)(=O)N2CCC(O)CC2)c1 | 1

---

- protocol: 28-day twice-daily oral gavage pharmacokinetics in CD1 mice
- Assay type: in vivo
- condition-label: female, CD1, mouse, plasma, po, 150 mg/kg, day 1; 150 mg/kg/dose BID oral gavage; F
readout-kind: half-life (h)

* O=C(Nc1cc(F)c(F)c(F)c1)c1ccc(F)c(S(=O)(=O)N2CCC(O)CC2)c1 | 4.35

---

- protocol: 28-day twice-daily oral gavage pharmacokinetics in CD1 mice
- Format: in vivo
- condition-label: male, CD1, mouse, plasma, po, 500 mg/kg, day 28; 500 mg/kg/dose BID oral gavage; M; after second daily dose; read-out: AUC0–12
readout-kind: AUC(0-t)

• O=C(Nc1cc(F)c(F)c(F)c1)c1ccc(F)c(S(=O)(=O)N2CCC(O)CC2)c1 = 375 µg·h/mL

---

- protocol: 28-day twice-daily oral gavage pharmacokinetics in CD1 mice
- Type: in vivo
- condition-label: female, CD1, mouse, plasma, po, 150 mg/kg, day 28; 150 mg/kg/dose BID oral gavage; F; after second daily dose; read-out: AUC0–12
readout-kind: AUC(0-t) (µg·h/mL)

* O=C(Nc1cc(F)c(F)c(F)c1)c1ccc(F)c(S(=O)(=O)N2CCC(O)CC2)c1 | 171

---

- protocol: 28-day twice-daily oral gavage pharmacokinetics in CD1 mice
- Type: in vivo
- condition-label: female, CD1, mouse, plasma, po, 50 mg/kg, day 1; 50 mg/kg/dose BID oral gavage; F; plasma; read-out: Cmax
- Description: Fed male and female CD1 mice (36/sex/group) were dosed twice a day (BID) by oral gavage with 50, 150, and 500 mg/kg of body weight/dose of NVR 3-778 for 28 days. At different time points after dosing, plasma was analyzed for NVR 3-778 concentration by liquid chromatography-tandem mass spectrometry (LC-MS/MS). […]
readout-kind: Cmax (ng/mL)

- O=C(Nc1cc(F)c(F)c(F)c1)c1ccc(F)c(S(=O)(=O)N2CCC(O)CC2)c1: 11700

---

- Test system: HBV
- protocol: Antiviral studies using HepG2.2.15 cells (HBV DNA and HBV RNA readouts)
- Assay type: cell-based, hepatitis B virus (GT D)
- condition-label: Hepatitis B virus, HepG2.2.15; values used as starting concentrations of the combination study; read-out: EC50 against HBV DNA replication in HepG2.2.15 cells
readout-kind: EC50 (nM)

- Nc1ccn([C@@H]2CS[C@H](CO)O2)c(=O)n1 [LMV, lamivudine, reference compound]: 150

---

- protocol: 28-day twice-daily oral gavage pharmacokinetics in CD1 mice
- Format: in vivo
- condition-label: male, CD1, mouse, plasma, po, 500 mg/kg, day 28; 500 mg/kg/dose BID oral gavage; M
readout-kind: half-life

• O=C(Nc1cc(F)c(F)c(F)c1)c1ccc(F)c(S(=O)(=O)N2CCC(O)CC2)c1 [NVR 3-778] = 3.15 h

---

- protocol: 28-day twice-daily oral gavage pharmacokinetics in CD1 mice
- Format: in vivo
- condition-label: female, CD1, mouse, plasma, po, 150 mg/kg, day 1; 150 mg/kg/dose BID oral gavage; F; after second daily dose; read-out: AUC0–12
readout-kind: AUC(0-t)

- O=C(Nc1cc(F)c(F)c(F)c1)c1ccc(F)c(S(=O)(=O)N2CCC(O)CC2)c1: 131 µg·h/mL
